Here, each record is paired with measured logP data.
Lab note: jot the number down without any unit.

Return the recorded logP value; entry: ClC(Cl)(Cl)Sc1ccccc1
3.78

For O=C(Cn1c(=O)sc2ccc(Cl)cc21)N1CCNCC1 , write its logP.
1.35

Quote logP reported for CCCCCCOC(=O)c1cc(O)c(O)c(O)c1 please.
3.17

Retrieve logP measured for N#Cc1ccc2[nH]ccc2c1 and print it.
2.38

In one line, give reported logP of the entry CC(=O)Nc1ccccc1[N+](=O)[O-] .
1

Answer with the recorded logP for the molecule listed here: CCOP(=S)(OCC)SCCS(=O)(=O)CC
1.87

Tell me measured logP for NC1=C(Cl)C(=O)c2ccccc2C1=O please.
2.12

State its logP for this molecule: Nc1ccc(Cl)c(Cl)c1
2.69

Answer with the recorded logP of O=C(O)CS only.
0.09

Provide one value: measured logP of CC(C)NC(=O)C=Cc1ccc([N+](=O)[O-])o1
1.34

Read off the recorded logP for OCCN1CCN(CCCN2c3ccccc3Sc3ccc(Cl)cc32)CC1
4.2

Recall and state the measured logP for O=C(O)c1ccc(N=C=S)cc1 .
3.52

Provide one value: measured logP of O=C(O)c1cc([N+](=O)[O-])ccc1O
2.34

Kindly indicate its recorded logP. Item: [O-][n+]1ccccc1
-1.2

Name the recorded logP of the molecule listed here: CNC(=O)Oc1cccc(Br)c1
2.25

For the molecule CC#CC#CC , give its reported logP.
2.24

Determine from records and report logP for NCCCCCc1ccncc1
1.4
